Value source: ChEMBL document CHEMBL1961873

target: Fibroblast growth factor receptor 3 (Homo sapiens) (UniProt P22607); settings: at 1 µM
Sequence (P22607 23-806 limits assumed): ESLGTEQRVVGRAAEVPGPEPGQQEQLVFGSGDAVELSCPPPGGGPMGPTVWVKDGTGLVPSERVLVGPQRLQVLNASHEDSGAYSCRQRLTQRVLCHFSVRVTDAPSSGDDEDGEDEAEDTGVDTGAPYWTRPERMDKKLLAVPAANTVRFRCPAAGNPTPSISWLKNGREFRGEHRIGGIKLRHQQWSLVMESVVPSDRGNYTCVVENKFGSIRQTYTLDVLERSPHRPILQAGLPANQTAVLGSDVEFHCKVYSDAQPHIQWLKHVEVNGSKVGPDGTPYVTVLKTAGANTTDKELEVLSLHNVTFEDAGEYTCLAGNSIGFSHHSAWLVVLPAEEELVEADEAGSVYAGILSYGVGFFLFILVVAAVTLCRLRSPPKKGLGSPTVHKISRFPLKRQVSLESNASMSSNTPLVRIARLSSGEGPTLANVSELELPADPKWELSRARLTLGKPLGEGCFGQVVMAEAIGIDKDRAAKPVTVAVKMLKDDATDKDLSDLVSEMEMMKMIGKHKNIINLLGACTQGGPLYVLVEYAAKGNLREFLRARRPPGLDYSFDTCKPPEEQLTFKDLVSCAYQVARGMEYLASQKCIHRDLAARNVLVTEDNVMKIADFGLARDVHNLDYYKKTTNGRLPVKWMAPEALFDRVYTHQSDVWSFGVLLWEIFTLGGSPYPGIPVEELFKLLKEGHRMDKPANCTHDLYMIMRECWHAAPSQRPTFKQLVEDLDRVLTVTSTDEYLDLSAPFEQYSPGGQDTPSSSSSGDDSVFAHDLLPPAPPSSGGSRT
Quantity name: inhibition (%)
// note: answer is a bare numeric in %

Check out these entries, answers already filled in.
Smiles notation: COc1cc2ncn(-c3cc(OCc4cccs4)c(C(N)=O)s3)c2cc1OC
Tested target: Fibroblast growth factor receptor 3 (Homo sapiens) (UniProt P22607)
inhibition / %: 12.4

Smiles notation: Fc1ccc(-c2nc3n(c2-c2ccncc2)CCS3)cc1
Tested target: Fibroblast growth factor receptor 3 (Homo sapiens) (UniProt P22607)
inhibition / %: 0.09

Smiles notation: NC(=O)c1cc(-c2ccncc2)cc(-c2ccccc2)c1N
Tested target: Fibroblast growth factor receptor 3 (Homo sapiens) (UniProt P22607)
inhibition / %: 6.17

Smiles notation: COC(=O)Nc1nc2ccc(Sc3ccc(NC(=O)Nc4cc(C(F)(F)F)ccc4F)cc3)cc2[nH]1
Tested target: Fibroblast growth factor receptor 3 (Homo sapiens) (UniProt P22607)
inhibition / %: 2.77

Please provide the recorded inhibition for O=C(Nc1ccc(Oc2ccc3[nH]c(NC(=O)c4ccccc4)nc3c2)cc1)Nc1cc(C(F)(F)F)ccc1F , tested on Fibroblast growth factor receptor 3 (Homo sapiens) (UniProt P22607).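 Note: values reported are mean percent inhibition of FGFR3 activity.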
6.31

* * *

target: SRSF protein kinase 1 (Homo sapiens) (UniProt Q96SB4); details: at 1 µM;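 note: reported values are mean percent inhibition of SRPK1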
Sequence (Q96SB4 whole entry): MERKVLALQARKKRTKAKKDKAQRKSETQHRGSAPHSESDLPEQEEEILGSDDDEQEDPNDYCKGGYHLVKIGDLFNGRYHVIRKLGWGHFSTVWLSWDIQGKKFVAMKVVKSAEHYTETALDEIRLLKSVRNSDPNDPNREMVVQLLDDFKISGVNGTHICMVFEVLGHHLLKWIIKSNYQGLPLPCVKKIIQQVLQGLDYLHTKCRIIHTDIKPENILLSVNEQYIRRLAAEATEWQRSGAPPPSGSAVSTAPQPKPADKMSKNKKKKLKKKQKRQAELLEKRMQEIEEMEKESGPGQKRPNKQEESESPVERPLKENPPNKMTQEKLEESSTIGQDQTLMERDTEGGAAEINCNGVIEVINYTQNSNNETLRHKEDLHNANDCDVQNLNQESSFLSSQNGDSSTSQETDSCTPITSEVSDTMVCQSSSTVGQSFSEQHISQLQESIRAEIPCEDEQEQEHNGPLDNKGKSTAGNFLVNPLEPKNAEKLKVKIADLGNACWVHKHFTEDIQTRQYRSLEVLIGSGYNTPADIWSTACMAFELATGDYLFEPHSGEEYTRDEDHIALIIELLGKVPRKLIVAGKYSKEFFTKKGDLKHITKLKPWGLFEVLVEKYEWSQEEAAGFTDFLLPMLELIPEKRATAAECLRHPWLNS
Quantity name: inhibition
Form entry: enter the amount, then its unit.

Check out these entries, answers already filled in.
Smiles notation: NS(=O)(=O)c1ccc(N/N=C2\C(=O)Nc3ccc(C(=O)NCCCn4ccnc4)cc32)cc1
Reported measurement: 2.62%
--
Smiles notation: COc1ccc(-c2ccc3c(NC(=O)C4CC4)n[nH]c3n2)cc1
Reported measurement: 1.03%
--
Smiles notation: NS(=O)(=O)c1ccc(Nc2cc(-c3ccc(O)c(F)c3)n[nH]2)cc1
Reported measurement: 1.27%
--
Smiles notation: O=C1NC(=O)C(c2cccc(Cl)c2)=C1Nc1ccc(Cl)c(C(=O)O)c1
Reported measurement: -1.47%

Please look up its inhibition: NC(=O)Cc1ccccc1Oc1nccc(-c2c(-c3ccc(F)cc3)ncn2C2CCNCC2)n1
-4.17%

* * *

target: Serine/threonine-protein kinase B-raf (Homo sapiens) (UniProt P15056); conditions: at 1 µM;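 note: reported value is the mean percent inhibition of BRAF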
Sequence (P15056 whole entry): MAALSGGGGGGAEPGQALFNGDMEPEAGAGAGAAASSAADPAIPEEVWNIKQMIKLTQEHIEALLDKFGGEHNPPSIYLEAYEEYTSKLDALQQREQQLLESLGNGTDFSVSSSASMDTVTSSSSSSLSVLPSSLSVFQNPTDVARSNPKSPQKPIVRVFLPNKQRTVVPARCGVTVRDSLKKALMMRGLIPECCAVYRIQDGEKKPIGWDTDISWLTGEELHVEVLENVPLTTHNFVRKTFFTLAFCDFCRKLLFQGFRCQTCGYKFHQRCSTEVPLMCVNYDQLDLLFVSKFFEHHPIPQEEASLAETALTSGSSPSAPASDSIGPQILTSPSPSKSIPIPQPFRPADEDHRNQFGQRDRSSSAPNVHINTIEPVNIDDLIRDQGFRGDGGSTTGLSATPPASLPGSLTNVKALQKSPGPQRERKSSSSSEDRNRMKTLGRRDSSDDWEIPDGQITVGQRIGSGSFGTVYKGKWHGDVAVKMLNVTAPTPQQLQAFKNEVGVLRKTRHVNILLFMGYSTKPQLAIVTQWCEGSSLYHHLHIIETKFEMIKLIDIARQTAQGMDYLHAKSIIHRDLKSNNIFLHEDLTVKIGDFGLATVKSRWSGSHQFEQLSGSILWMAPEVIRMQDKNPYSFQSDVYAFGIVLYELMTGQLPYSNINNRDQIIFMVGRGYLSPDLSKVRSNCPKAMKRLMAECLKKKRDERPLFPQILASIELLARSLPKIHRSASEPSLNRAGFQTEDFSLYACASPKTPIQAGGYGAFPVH
Listing: inhibition of selected molecules
// note: answer is a bare numeric in %

Check out these entries, answers already filled in.
Smiles notation: Cc1ccc(NC(=O)c2ccoc2)cc1-c1ccc(C(=O)NCC2CC2)cc1
Quantity name: inhibition
Endpoint unit: %
Reported measurement: 2.28

Smiles notation: CCc1cccc(CC)c1/C=C/c1cncc(C(=O)NC)c1
Quantity name: inhibition
Endpoint unit: %
Reported measurement: 2.6

Smiles notation: CNC(=O)c1cncc(/C=C/c2c(C)cccc2C)c1
Quantity name: inhibition
Endpoint unit: %
Reported measurement: 5.69

Please look up its inhibition: COc1cc(Nc2ncc3c(C)nc(-c4cccc(Oc5ccccc5)c4)n3n2)cc(OC)c1OC
12.2

Please look up its inhibition: O=C(Nc1n[nH]c2cc(-c3ccccc3)ccc12)C1CC1
6.29

Please look up its inhibition: Cc1nnc(-c2ccc(C)c(-c3ccc(C(=O)NCc4ccc(Cl)cc4)cc3)c2)o1
4.07

* * *

Listing: inhibition of selected compounds
molecular target: RAC-beta serine/threonine-protein kinase (Homo sapiens); conditions: at 0.1 µM;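 note: reported figure is the mean percent inhibition of AKT2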
// note: answer is a bare numeric in %

Check out these entries, answers already filled in.
Compound: COc1cc(Nc2ncc3c(C)nc(-c4cccc(C(F)(F)F)c4)n3n2)cc(OC)c1OC
inhibition (%): 1.62
--
Compound: COc1cc(Nc2ncc(-c3ccccc3)o2)cc(OC)c1OC
inhibition (%): -2.18
--
Compound: O=C(Nc1n[nH]c2cc(-c3ccccc3)ccc12)C1CC1
inhibition (%): 1.2
--
Compound: N#Cc1ccc(Oc2nccc(-c3c(-c4ccc(F)cc4)ncn3C3CCNCC3)n2)cc1
inhibition (%): 0.99

Please look up its inhibition: NS(=O)(=O)c1ccc(N/N=C2\C(=O)Nc3ccc(-c4cnco4)cc32)cc1
-3.63

Please look up its inhibition: Cc1ccc(C(=O)NC2CCC2)cc1-c1ccc(C(=O)NCC2CC2)cc1
1.03

Please look up its inhibition: C/C(Nc1ccc(S(N)(=O)=O)cc1)=C1/C(=O)Nc2ccccc21
-3.63

Please look up its inhibition: COc1ccc2ncn(-c3cc(O[C@H](C)c4ccccc4Cl)c(C(N)=O)s3)c2c1
-2.65

Please look up its inhibition: COc1ccc2cc(-c3c(-c4ccncc4)nc(-c4ccc([S+](C)[O-])cc4C)n3C)ccc2c1 (configuration not stated)
-0.6

Please look up its inhibition: O=C(Nc1n[nH]c2nc(-c3ccco3)ccc12)C1CC1
0.45

Please look up its inhibition: Cc1ccc(NC(=O)c2ccoc2)cc1-c1ccc(C(=O)NCC2CC2)cc1
0.88

* * *

Biological target: Testis-specific serine/threonine-protein kinase 2 (Homo sapiens)
Sequence (whole entry): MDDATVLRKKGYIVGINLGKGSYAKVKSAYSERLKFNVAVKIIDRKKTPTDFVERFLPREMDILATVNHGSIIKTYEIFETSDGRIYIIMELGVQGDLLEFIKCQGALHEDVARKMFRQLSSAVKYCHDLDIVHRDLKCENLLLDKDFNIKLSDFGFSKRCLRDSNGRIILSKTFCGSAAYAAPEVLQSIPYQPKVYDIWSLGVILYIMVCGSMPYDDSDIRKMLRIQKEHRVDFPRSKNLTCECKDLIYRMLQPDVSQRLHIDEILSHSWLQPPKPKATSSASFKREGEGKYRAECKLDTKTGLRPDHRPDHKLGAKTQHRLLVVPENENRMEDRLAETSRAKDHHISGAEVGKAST
Settings: at 0.1 µM
Quantity name: inhibition (%)
// note: answer is a bare numeric in %

Smiles notation: CCc1nccc2c1nc(-c1nonc1N)n2CC
Tested target: Testis-specific serine/threonine-protein kinase 2 (Homo sapiens)
Reported measurement: -0.65
//
Smiles notation: COc1ccc(-c2ccc3c(NC(=O)C4CC4)n[nH]c3n2)cc1
Tested target: Testis-specific serine/threonine-protein kinase 2 (Homo sapiens)
Reported measurement: 0.65
//
Smiles notation: NS(=O)(=O)c1ccc(N/N=C2\C(=O)Nc3ccc(-c4cnco4)cc32)cc1
Tested target: Testis-specific serine/threonine-protein kinase 2 (Homo sapiens)
Reported measurement: 0.01
//
Smiles notation: Cc1ccc(NC(=O)c2ccoc2)cc1-c1ccc(C(=O)NCC2CC2)cc1
Tested target: Testis-specific serine/threonine-protein kinase 2 (Homo sapiens)
Reported measurement: 0.85
//
Smiles notation: CCc1ccc(Oc2nccc(-c3c(-c4ccc(F)cc4)ncn3C3CCNCC3)n2)cc1
Tested target: Testis-specific serine/threonine-protein kinase 2 (Homo sapiens)
Reported measurement: 1.61
//
Smiles notation: O=C(Nc1ccc(Oc2ccc3[nH]c(NC(=O)c4ccccc4)nc3c2)cc1)Nc1cc(C(F)(F)F)ccc1F
Tested target: Testis-specific serine/threonine-protein kinase 2 (Homo sapiens)
Reported measurement: 1.68
//
Smiles notation: Fc1ccc(-c2c(-c3ccncc3)nc3n2CCS3)cc1
Tested target: Testis-specific serine/threonine-protein kinase 2 (Homo sapiens)
Reported measurement: 1.87
//
Smiles notation: O=C(NCC1CC1)c1ccc(-c2cccc(C(=O)NC3CC3)c2)cc1
Tested target: Testis-specific serine/threonine-protein kinase 2 (Homo sapiens)
Reported measurement: 0.33
//
Smiles notation: CN1CCN(CCCNc2nc3ccc(Oc4ccc(NC(=O)Nc5cc(C(F)(F)F)ccc5F)cc4)cc3[nH]2)CC1
Tested target: Testis-specific serine/threonine-protein kinase 2 (Homo sapiens)
Reported measurement: -0.81

In the following, a different molecule is considered.
Please provide the recorded inhibition for CN(C)CCOc1ccc(-c2cc(-c3ccc4c(c3)CCC4=NO)c(-c3ccncc3)o2)cc1 , tested on Testis-specific serine/threonine-protein kinase 2 (Homo sapiens).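 Note: values are mean inhibition of TSSK2 activity from the GSK PKIS profiling panel.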
0.18

* * *

biological target: Tyrosine-protein kinase TXK (Homo sapiens); details: at 1 µM;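 note: value given is the mean percent inhibition of TXK kinase activity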
Listing: inhibition of selected molecules
Form entry: enter the amount, then its unit.

Check out these entries, answers already filled in.
Molecule: Nc1nccc(-c2c(-c3ccc(F)cc3)ncn2C2CCC(O)CC2)n1 (stereo not given)
inhibition: 19.2%

Molecule: CN(C)CCCNc1nccc(-c2c(-c3ccc(F)cc3)nn3cc(C(F)(F)F)ccc23)n1
inhibition: 0.21%

Molecule: O=C1NC(=O)C(c2cccc(Cl)c2)=C1Nc1ccc(Cl)c(C(=O)O)c1
inhibition: 2.53%

Molecule: COc1ccc2cc(-c3c(-c4ccncc4)nc(-c4ccc([S+](C)[O-])cc4C)n3C)ccc2c1 (stereo not given)
inhibition: 1.25%

Molecule: COc1cc(Nc2ncc3c(C)nc(-c4cccc(Oc5ccccc5)c4)n3n2)cc(OC)c1OC
inhibition: 4.09%

Molecule: CCc1cccc(CC)c1/C=C/c1cncc(C(=O)NC)c1
inhibition: 8.4%

Molecule: COC(=O)Nc1nc2ccc(Sc3ccc(NC(=O)Nc4cc(C(F)(F)F)ccc4F)cc3)cc2[nH]1
inhibition: 4.98%

Molecule: NC(=O)c1cc(-c2ccncc2)cc(-c2ccccc2)c1N
inhibition: 76.1%

Please look up its inhibition: O=C(Nc1n[nH]c2nc(-c3ccco3)ccc12)C1CC1
2.84%

Please look up its inhibition: COc1ccc2cc(-c3c(-c4ccncc4)nc(-c4ccc(S(C)(=O)=O)cc4C)n3C)ccc2c1
5.35%

Please look up its inhibition: COc1ccc2ncn(-c3cc(O[C@H](C)c4ccccc4Cl)c(C(N)=O)s3)c2c1
-1.33%

Please look up its inhibition: NC(=O)c1ccc(Oc2nccc(-c3c(-c4ccc(F)cc4)ncn3C3CCNCC3)n2)cc1
6.85%

Please look up its inhibition: O=C(Nc1n[nH]c2cc(-c3cc(F)ccc3F)ccc12)C1CC1
0.99%

Please look up its inhibition: O=C(NCC1CC1)c1ccc(-c2cccc(C(=O)NC3CC3)c2)cc1
5.31%
